B1: KRT33B (parent)
chain: YQSYFKTIEELQQKILCSKSENAR

Variants of: B1
Assay: protein stability index of a GFP-peptide fusion (GPS, HEK-293T) (PSI 1-6); higher = more stable;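 further: lentivirally expressed fusions sorted by FACS into six bins by GFP to DsRed ratio, PSI derived from sequencing read proportions per bin multiplied by bin number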
Settings: c terminus: a fixed tail appended
Consider the following variants; for each one, report its protein stability index.

>>> reading("K14T")
1.56
>>> reading("L11T")
1.85
>>> reading("Q12H")
1.78
>>> reading("I15A")
2.14
>>> reading("T7S")
1.73

Working through the 3 variants below one at a time, give protein stability index for each.
1. S18Q
2. E21T
3. R24T

**Result**
1: 2.26; 2: 1.77; 3: 1.76

Working through the 3 variants below one at a time, give protein stability index for each.
1. C17K
2. E9G
3. N22H

**Result**
2.19
1.86
2.18

Working through the 6 variants below one at a time, give protein stability index for each.
1. E9K
2. R24P
3. F5G
4. N22T
5. Y1G
6. Y4A

**Result**
1. 2.9
2. 2.13
3. 2.92
4. 1.39
5. 3.08
6. 2.1

Working through the 3 variants below one at a time, give protein stability index for each.
1. R24M
2. E10N
3. S20N

**Result**
1.92
2.1
2.13

Working through the 3 variants below one at a time, give protein stability index for each.
1. S3D
2. A23C
3. Y1A

**Result**
1: 2.18; 2: 1.86; 3: 3.35

Working through the 3 variants below one at a time, give protein stability index for each.
1. A23F
2. Y1T
3. Y1S

**Result**
1: 1.47; 2: 3.28; 3: 3.62

Working through the 5 variants below one at a time, give protein stability index for each.
1. S18N
2. Q12G
3. R24Q
4. S18I
5. Q12N

**Result**
[1.92, 1.73, 2.34, 2.42, 1.89]

Working through the 5 variants below one at a time, give protein stability index for each.
1. Q12K
2. T7A
3. F5D
4. Q13P
5. Q2D

**Result**
2.06
2.21
3.8
1.83
2.98
